- method: folding stability dG unfold (combined trypsin and chymotrypsin); higher = more stable
quantity-measured: folding stability dG unfold (kcal/mol)
Report as a plain number; the unit kcal/mol is understood.

[ask] Recorded folding stability dG unfold for SAGGMLLKLPLSSVEIPPDASEEEIEEAKRKLAKPKVVKVTEEVLIEENGIVKKVKVTKYVSLSVEESAGGS [r16_387_JUSTAS] , please?
[reply] 0.87

[ask] SAGKISSIDISPFKLPDGSYPYLLRVSFPDLGTEVDFIFPAKPSDAINFAKELRKSLPNIPLTFSNISSAGG [r19_317_TrMRF] ?
[reply] 1.87

* * *

Please provide measured folding stability dG unfold for the entries that follow.
- method: folding stability dG unfold (combined trypsin and chymotrypsin); higher = more stable
Report as a plain number; the unit kcal/mol is understood.

[ask] Recorded folding stability dG unfold for SAYRIEIEIPSPKLAKKLEALLPPNYRIDNVRRNKNDNQVKITVEYDPGMPPSRMRRIHKEIKELIKELSAG [r14_306_TrROS] , please?
[reply] 1.86

[ask] SAGGSAGGSAGMKTRTITVSVSPEESEEEVRERVEAELPPGSVVEVTRLPDGTVVVTVEESAGGSAGGSAGG [r17_20_JUSTAS] ?
[reply] 1.55

[ask] SAGGSAGGSAAPDEKLKITVELVDPNNGKRIEEKEYPNMTIEEVKKEAEEKGLKIVKIEVSSAGGSAGGSAG [r3_423_JUSTAS] ?
[reply] -0.173

[ask] SAGGSAGGSMVVVRRLPDGRYLLEVRLEGESLRFEVDGEEEVERFAKALEELTGRPVEVLTVESAGGSAGGS [r12_783_TrMRF] ?
[reply] 4.15

[ask] SAGGSAGGKKLEELKEKLKKLKPKPELEVEIKIVMSKEEAEKLAKELEKLPNIKKVRVEILEPDSAGGSAGG [r6_284_TrROS_Hall] ?
[reply] 0.0502

[ask] SAETVVTPRRSTLPDGTRLEEDVVTLPDGTTVTPVRVVRRDPETGREVVEFWVRTTDPATGTTTTTPLPSAG [r14_324_JUSTAS] ?
[reply] 1.23

* * *

- method: folding stability dG unfold from trypsin proteolysis; higher = more stable
quantity-measured: folding stability dG unfold (kcal/mol)
Report as a plain number; the unit kcal/mol is understood.

[ask] Recorded folding stability dG unfold for SAGGSAGGSAMKVPLENVENPKKFPGTGLEIYTFTDKETGKKKIVLVEKPPNKGKKITVIESAGGSAGGSAG [r3_491_JUSTAS] , please?
[reply] 0.0339

[ask] SAGGSAGGSAGVKVLKNPGDSLVTVVTETTVTKTTTDPEGNTTTTPVKVTTTTLLEVPLTSAGGSAGGSAGG [r17_103_JUSTAS] ?
[reply] 0.205

[ask] SAGGSAGGVVLEVEIPYESEEEAREKAEEVLKELGLPESAKITKIEFYPGPGEKKSVKVYIKLESAGGSAGG [r6_284_JUSTAS] ?
[reply] 1.92

[ask] SMKMSPEEKLKELAKELAEKLEEETGKKVKVRVTVEYNGKTFEIEIEEGETIEDIRNKFPGLKIKVEIEPSA [r9_513_TrROS_Hall] ?
[reply] 1.34

[ask] SAGGMLEEVAEELAKELNATAREFTTVGDVPRILLTFKVPGSSTYLEVTLTLPPDGSVERTTKPIAASAGGS [r16_433_JUSTAS] ?
[reply] 0.974

[ask] SAMDLLRERGYDVEEVTKLRDEVLPNGTIVTLYEVTVRLPDRVITTPIKVSGESEEEAEKLAYETVARESAG [r14_726_JUSTAS] ?
[reply] 0.49

[ask] SAMELSPEERAELLIEAVRRKLEEARKKGIPNKKVKVTIVLSEEEREALAKRIEEELKEEGYEVEIVPESAG [r14_908_TrROS_Hall] ?
[reply] 2.17

[ask] SAGGSAGGSAGGSMTITYDKENKTLTIKLPNGKKVLTVNLENMTPEQLKELAKKLGLEVSAGGSAGGSAGGS [r4_49_TrROS_Hall] ?
[reply] 3.18

[ask] SAGGSAIKLPPGEEYTIIMRNPQNGRPFKVPIKRVDPGQIQIEIENPKNGEKQKFTIPANDIEIVKSAGGSA [r15_381_TrROS] ?
[reply] 0.0718

[ask] SAGGSAPAKVEPLRVKIEFTPPNGEKHTFPMEIHRVHDNAIEIQDGGQPIRIPPNLDNIQITDIELSAGGSA [r15_510_TrROS] ?
[reply] -0.614

[ask] SAGGSAGGSMVTPDGRLVIEIEVSEEDIEKLKEEARKKLGVKEVKVEVEEKDGKLKVRIVVEPSAGGSAGGS [r12_929_TrROS_Hall] ?
[reply] 0.743

[ask] SAGGSAGGMIEVSYDPVKNRYIATFKFPEGEVTITLPADLSPEEKAAAIKAAAEAAAKEKGIKLSAGGSAGG [r6_679_JUSTAS] ?
[reply] 1.68

[ask] SDDIKNMPFRITEIEPLPPGDPIPPGQRIRITIQMPDFPGQPFEFDIRVDPENGMIYMEMGGMPFEIPIKSA [r9_243_TrROS] ?
[reply] 1.6

[ask] SAGKPRPVEIDFPMPPGFPNMPPEEMANMIARELDENGLKIEPKNMNPGEPYVRYTVEVNGKPILEITFSAG [r5_80_TrROS] ?
[reply] 0.762

* * *

Please provide measured folding stability dG unfold for the entries that follow.
- method: folding stability dG unfold from chymotrypsin proteolysis; higher = more stable
Report as a plain number; the unit kcal/mol is understood.

[ask] Recorded folding stability dG unfold for SAGGMTVSVTADGSSYTATVKLPDGTTLTVPFTSLEELATQVREEYEKAFPDVPLERLVLEDISPTAPSAGG [r13_887_JUSTAS] , please?
[reply] 3.34

[ask] SAGGEKDLYLVKYRVEIKNDKGEKKEFPVTAIATSLEELEETLKALTPKNAEAKVEILEVKPLKEVLSSAGG [r13_513_TrMRF] ?
[reply] 1.55

[ask] SAGGSAGMPRLVEIEVPLPPDAKDPEIKEKIIKTPEGYEYKTIKETSDPSPSSLRKIIMEKKPLKKSAGGSA [r15_852_JUSTAS] ?
[reply] -0.197

[ask] SAGGSAGGSAGGMEIIEKEETLDEETLKKLEEEGVPKSEATVKVTEVIYKEEYPEEGLKSAGGSAGGSAGGS [r10_1149_JUSTAS] ?
[reply] -0.692

* * *

- method: folding stability dG unfold (combined trypsin and chymotrypsin); higher = more stable
Please provide measured folding stability dG unfold for the entries that follow.

[ask] Recorded folding stability dG unfold for SEETLRILIRDPATGELREIEVRAGETVTVTFPDGSTVTLRITVVAAPPPPPKTVTLDPNETVEEGETVLSA [r9_467_TrROS_Hall] , please?
[reply] 2.1 kcal/mol

[ask] ATVTVEKLPDGYRVTVTIGATYIDPETGKPVELSAPVTAFVPPEVPDPEVAAKRAAAEALAEFLAALPEGGS [r1_414_TrMRF] ?
[reply] 1.85 kcal/mol

[ask] SAGGSAGGSAGGMTAIIVESEEEAKKIAEEKGIKDVKFIPKGKPELLKPDVDKVIKINKKSAGGSAGGSAGG [r7_381_JUSTAS] ?
[reply] 0.102 kcal/mol

[ask] SAGGMVKLTVYETPDSYTVTIDLGDKPYTIPVPPGLSPEEAAARAVEELQKAFPDEEVVVESVEYVARSAGG [r13_884_JUSTAS] ?
[reply] 1.19 kcal/mol

[ask] SAGGSAGGSAGMAIGLEEILARLDPERIISVEVDEENPLVTVKLRPPSGETKTITFKLSLSAGGSAGGSAGG [r17_374_JUSTAS] ?
[reply] 1.06 kcal/mol

[ask] SAGSKELVIVEKDEPVEGETLDYTNGKKKKFPKKVPVVKEIVLPKNSPEAEKIAKELSPPNVKVEILAKSAG [r5_468_JUSTAS] ?
[reply] -0.617 kcal/mol

[ask] SMKTKTVTLDLSPEDPEAARAAVEAAIAEARAADPDTEVTVTVTISPEHPELLAEIEALAAERGVSLVLGSA [r9_1202_JUSTAS] ?
[reply] 2.81 kcal/mol

* * *

Please provide measured folding stability dG unfold for the entries that follow.
- method: folding stability dG unfold from trypsin proteolysis; higher = more stable
Report as a plain number; the unit kcal/mol is understood.

[ask] Recorded folding stability dG unfold for SAGGSASLESEDVEEVSTSTSVVPLPDGGTATVTTTTYRHKEPGTLVTRTTTTFPGGATTTTVTLLSAGGSA [r15_188_JUSTAS] , please?
[reply] 1.69

[ask] SAGGSAMYTVTLTLPPSLAIPPDSTITVTFPDGSTETYSVDSGPVTITLTAPADGSTSVGVSLSVPSAGGSA [r15_992_JUSTAS] ?
[reply] 2.6

[ask] SAGGSAGGIEVKIEGEIKPVKVTVSFSTANGDGNPKEYPVEKTYLVVDIKIEVNSPEAAKKINISAGGSAGG [r6_149_TrMRF] ?
[reply] 1.37

[ask] SAGGSAGMPLVTAPVTRDPNSDVVTLTVYDPRTGETHTYTSPGSVEEAVEAFREATGLPISEVVLESAGGSA [r15_101_JUSTAS] ?
[reply] 1.45

[ask] SAGGSAEWKEKALKMGAKEVKEDPANGYLYVTFPGPGRTIVIWKKEEDGTVTKVKTVSPSVKVEYKSAGGSA [r15_247_JUSTAS] ?
[reply] -0.292

[ask] SMTTEEKVEVSVTVTPDPNSDNVTLTLTITKRTYAKDENGNWTEVSTETSTITVTLSPEEAAKLAAELLSSA [r9_642_JUSTAS] ?
[reply] 3.75

[ask] SAGLTAKITSVTEENGTLTVTVEVTAPDGSTFTFTATFRIEPAPAPPVKVTVETDADGNVTVTVETLDSAGG [r19_172_TrROS_Hall] ?
[reply] 5.13

[ask] SAGGSAGGSAGMPLYIIEVEKEDGSKITITIPENMTEEEIKKIAEELGIKKVEIIKKEDLSAGGSAGGSAGG [r11_490_TrROS_Hall] ?
[reply] 1.91

[ask] SDLRNMPIEELAKRIAREHGIEDVKVEVSRTGDSLTIPIEIRDPEQGMKYKVMIMVDPPDDGRIGIGVERSA [r9_1042_TrROS] ?
[reply] 0.275

[ask] SAGGSAGGSAGDKPITIFIPGTPDDIKDYIEDEGFKIKDIEIQYHKNKDGKYWVMVTIRVSAGGSAGGSAGG [r11_632_TrROS] ?
[reply] 2.87

[ask] SSSVSVTRTRDPRTGRLVVTVSMNYEDDPEEAVEAAKALLEAAGLDVAEVLSITVDPSTGTVTIPIAVAPSA [r9_876_JUSTAS] ?
[reply] 2.79

[ask] SAGGSAGGSAGGKVVKFTRPDGKPVDAKKILSYDPDKPKLYVLVEDEGPVELREVDADKDSAGGSAGGSAGG [r7_236_TrMRF] ?
[reply] -0.245

[ask] SAGGSAGGKIRILEEEEDPANGERRLMVMVHNPKGKPHQYPVPLDDADEILEHLPPGMPVEIYPSAGGSAGG [r6_113_TrROS] ?
[reply] 0.362

[ask] SAGGSAGGSAGMKVAVLTIPENGKPVLVVELPDGGALAFDPDTDAVFLLDDDKIYYLGPASAGGSAGGSAGG [r17_476_TrMRF] ?
[reply] 0.0117
